Please provide measured Dmax for the entries that follow.
- study_system: BRAF V600E (Homo sapiens, UniProt P15056, V600E)
- Construct: expressed in transfected cells
- Sequence (P15056 whole entry V600E): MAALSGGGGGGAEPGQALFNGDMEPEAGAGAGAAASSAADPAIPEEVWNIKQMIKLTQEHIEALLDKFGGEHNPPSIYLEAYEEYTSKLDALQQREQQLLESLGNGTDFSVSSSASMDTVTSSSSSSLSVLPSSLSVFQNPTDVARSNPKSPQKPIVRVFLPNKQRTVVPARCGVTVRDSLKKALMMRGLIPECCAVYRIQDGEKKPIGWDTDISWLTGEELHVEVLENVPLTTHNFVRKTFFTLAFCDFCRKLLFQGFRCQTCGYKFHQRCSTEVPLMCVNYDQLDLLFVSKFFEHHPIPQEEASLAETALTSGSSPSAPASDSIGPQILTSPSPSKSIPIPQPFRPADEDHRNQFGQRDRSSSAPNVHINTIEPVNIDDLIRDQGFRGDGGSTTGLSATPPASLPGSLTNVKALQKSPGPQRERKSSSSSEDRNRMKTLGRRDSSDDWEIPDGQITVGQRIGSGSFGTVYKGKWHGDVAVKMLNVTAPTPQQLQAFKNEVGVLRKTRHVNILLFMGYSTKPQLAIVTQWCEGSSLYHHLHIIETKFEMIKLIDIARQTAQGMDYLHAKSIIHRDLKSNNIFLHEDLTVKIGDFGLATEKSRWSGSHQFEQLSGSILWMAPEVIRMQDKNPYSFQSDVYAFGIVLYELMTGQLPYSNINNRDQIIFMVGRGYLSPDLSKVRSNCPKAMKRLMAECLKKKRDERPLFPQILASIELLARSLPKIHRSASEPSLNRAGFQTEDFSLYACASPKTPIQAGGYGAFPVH
- assay_text: Cellular assay of target protein degradation, T-Rex 293 cells stably transfected with HA-BRAF_V600E (HA immunofluorescence, high content imaging)
- Type: cell-based
- measurement_conditions: maximum degradation observed, T-Rex 293 HA-BRAF V600E

Query block: I have this compound here, `C[C@H]1CC[C@H](C)N1S(=O)(=O)Nc1ccc(F)c(C(=O)c2c[nH]c3ncc(-c4ccc(N5CCC(CN6CCC(c7ccc8c(c7)CN([C@H]7CCC(=O)NC7=O)C8=O)CC6)CC5)cc4)cc23)c1F` , and I need its recorded Dmax.
Result block: < 35%

Query block: I have this compound here, O=C1CCC(N2Cc3cc(CCCCN4CCC(c5ccc(-c6cnc7[nH]cc(C(=O)c8c(F)ccc(NS(=O)(=O)N9CC[C@@H](F)C9)c8F)c7c6)cc5)CC4)ccc3C2=O)C(=O)N1 (some centres unmarked) , and I need its recorded Dmax.
Result block: 35 to 70%

Query block: I have this compound here, COc1cc(N2CC3(CN(CC4CCN(c5ccc(-c6cnc7[nH]cc(C(=O)c8c(F)ccc(NS(=O)(=O)N9CC[C@@H](F)C9)c8F)c7c6)cn5)CC4)C3)C2)cc2c1C(=O)N(C1CCC(=O)NC1=O)C2 (some centres unmarked) , and I need its recorded Dmax.
Result block: 35 to 70%

Query block: I have this compound here, `O=C1CC[C@H](N2Cc3cc(C4CCN(CC5CCN(c6ccc(-c7cnc8[nH]cc(C(=O)c9c(Cl)ccc(NS(=O)(=O)N%10CC[C@@H](F)C%10)c9Cl)c8c7)cc6)CC5)CC4)ccc3C2=O)C(=O)N1` , and I need its recorded Dmax.
Result block: 35 to 70%

Query block: I have this compound here, CN(CC1CCN(c2ccc(-c3cnc4[nH]cc(C(=O)c5c(F)ccc(NS(=O)(=O)N6CC[C@@H](F)C6)c5F)c4c3)cc2)CC1)[C@H]1C[C@@H](Oc2ccc3c(c2)CN(C2CCC(=O)NC2=O)C3=O)C1 (some centres unmarked) , and I need its recorded Dmax.
Result block: 35 to 70%

Query block: I have this compound here, O=C1CCC(N2Cc3cc(C4CCN(CC5CC6(C5)CN(c5ccc(-c7cnc8[nH]cc(C(=O)c9c(F)ccc(NS(=O)(=O)N%10CC[C@@H](F)C%10)c9F)c8c7)cn5)C6)CC4)ccc3C2=O)C(=O)N1 (some centres unmarked) , and I need its recorded Dmax.
Result block: 35 to 70%

Query block: I have this compound here, `C[C@H]1[C@H](F)CCN1S(=O)(=O)Nc1ccc(F)c(C(=O)c2c[nH]c3ncc(-c4ccc(N5CCC(CN6CCC(c7ccc8c(c7)CN([C@H]7CCC(=O)NC7=O)C8=O)CC6)CC5)cc4)cc23)c1F` , and I need its recorded Dmax.
Result block: 35 to 70%

Query block: I have this compound here, O=C1CCC(N2Cc3cc(N4CC(CN5CCC(Cc6ncc(-c7cnc8[nH]cc(C(=O)c9c(F)ccc(NS(=O)(=O)N%10CC[C@@H](F)C%10)c9F)c8c7)cn6)CC5)C4)ccc3C2=O)C(=O)N1 (some centres unmarked) , and I need its recorded Dmax.
Result block: 35 to 70%

Query block: I have this compound here, COc1cc(N2CCC(CN3CC4(C3)CN(c3ccc(-c5cnc6[nH]cc(C(=O)c7c(F)ccc(NS(=O)(=O)N8CCC(F)(F)C8)c7F)c6c5)cc3)C4)CC2)cc2c1C(=O)N(C1CCC(=O)NC1=O)C2 (centres unmarked) , and I need its recorded Dmax.
Result block: < 35%

Query block: I have this compound here, O=C1CCC(N2Cc3ccc(C4CCN(CC5CCN(c6ccc(-c7cnc8[nH]cc(C(=O)c9c(F)ccc(NS(=O)(=O)N%10CC[C@@H](F)C%10)c9F)c8c7)cc6)CC5)CC4)cc3C2=O)C(=O)N1 (some centres unmarked) , and I need its recorded Dmax.
Result block: < 35%

Query block: I have this compound here, `O=C1CC[C@H](N2Cc3cc([C@H](O)CCN4CC5(C4)CN(c4ccc(-c6cnc7[nH]cc(C(=O)c8c(F)ccc(NS(=O)(=O)N9CC[C@@H](F)C9)c8F)c7c6)cc4)C5)ccc3C2=O)C(=O)N1` , and I need its recorded Dmax.
Result block: 35 to 70%

Query block: I have this compound here, O=C1CCC(c2ccc(C3CCN(CC4CCN(c5ccc(-c6cnc7[nH]cc(C(=O)c8c(F)ccc(NS(=O)(=O)N9CC[C@@H](F)C9)c8F)c7c6)cc5)CC4)CC3)cn2)C(=O)N1 (some centres unmarked) , and I need its recorded Dmax.
Result block: > 70%

Query block: I have this compound here, `COc1cc(N2CCC(CN3CCN(c4ccc(-c5cnc6[nH]cc(C(=O)c7c(F)ccc(NS(=O)(=O)N8CC[C@@H](F)C8)c7F)c6c5)cc4)CC3)CC2)ccc1C(=O)N[C@H]1CCC(=O)NC1=O` , and I need its recorded Dmax.
Result block: 35 to 70%

Query block: I have this compound here, `C[C@@]12CN(CC3CCN(c4ccc5c(c4)CN([C@@H]4CCC(=O)NC4=O)C5=O)CC3)C[C@@H]1CN(c1ccc(-c3cnc4[nH]cc(C(=O)c5c(F)ccc(NS(=O)(=O)N6CC[C@@H](F)C6)c5F)c4c3)cc1)C2` , and I need its recorded Dmax.
Result block: < 35%
